Tested on: P93_24
Test: qHTS profiling for inhibitors of Plasmodium falciparum proliferation (AID 504749); further: nearly all actives have a fitted effect of over 60% in size
Conditions: P. falciparum in erythrocytes, SYBR Green DNA, 72 h; series mostly up to 28.7 µM
Records with an inconclusive call do not appear. Active and inactive are the calls of the source. The call rests on the fitted dose curve; in most records, active means well fitted inhibition curve with a large enough effect; inconclusive means small, poorly fitted or top-dose-only effect; inactive means flat fitted curve, though single readings scatter.
property.measured: outcome

Below, 6 molecules whose answers are already recorded.
                                   molecule  property_measured  test_value
0  O=S1(=O)OC(c2ccc(O)cc2)(c2ccc(O)cc2)c2ccccc21            outcome    inactive
1  CC1CCc2cc(F)cc3c(=O)c(C(=O)O)cn1c23 (stereo not drawn)            outcome    inactive
2                             COc1ccc(O)cc1            outcome    inactive
3  COc1ccc(C(=O)N2CCN(CC(=O)N3CCOCC3)CC2)cc1            outcome    inactive
4          Cc1c(Cn2ccnc2)c2ccccc2n1CCC(=O)O            outcome    inactive
5              Nc1ccc(C(=O)Oc2ccccc2)c(O)c1            outcome    inactive

Quick check: outcome on P93_24, item `COc1ccccc1OC(=O)Oc1ccccc1OC` ?
inactive

Quick check: outcome on P93_24, item `O=C(O)CCCc1ccccc1` ?
inactive

Quick check: outcome on P93_24, item `CC(=O)Nc1ccc(C(=O)O)cc1` ?
inactive

Quick check: outcome on P93_24, item `CC(=O)OCC(COC(C)=O)OC(C)=O` ?
inactive

Cited source for all entries: PubChem BioAssay (NCATS)
